- tested.on: T1, Cyk3, Q07533
- T1 sequence (Q07533 1-83, looked up): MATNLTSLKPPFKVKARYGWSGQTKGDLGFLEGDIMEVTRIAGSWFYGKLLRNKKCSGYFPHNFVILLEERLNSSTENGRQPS
- assay: SPOT array
- condition.details: median of control spots 1451
quantity.name: SPOT intensity

Ask | Which SPOT intensity is reported for this binder? "VAPPPLPNRQLPNLD"
Reply | 2

Ask | Which SPOT intensity is reported for this binder? "DTFLPPPPPPPSNFE"
Reply | 0

Ask | Which SPOT intensity is reported for this binder? "QPPLPSSAPPIPTSH"
Reply | 0

Ask | Which SPOT intensity is reported for this binder? "KRKRFNLLLPKPYLT"
Reply | 3

Ask | Which SPOT intensity is reported for this binder? "LLLLFVPDSPYDPAI"
Reply | 0

Ask | Which SPOT intensity is reported for this binder? "VGFRLALKFPSRITG"
Reply | 25

Ask | Which SPOT intensity is reported for this binder? "RNNRPVPPPPPMRTT"
Reply | 2
